The following molecules are shown together with reported cytotoxicity at 10 µM values.
Test: Toxicity liver stage against HepG2, at 10uM
Type: cell-based
Set-up: test concentration 10 uM, cell line HepG2-A16-CD81EGFP
Details: human, HepG2-A16-CD81EGFP cells; read-out: INHIBITION
observed property: cytotoxicity at 10 µM (%)

molecule	measured number
COc1ccc(CN2CCC3(CCCN(C)C3=O)C2)c(OC)c1C (stereo unspecified)	-0.409
Cc1cnn(CC2CCCN2C(=O)CCc2ccncc2)c1 (stereo unspecified)	-10.6
COc1ccc2c(c1)CC(C1CCOCC1)N(C(=O)c1ccn(C)n1)C2 (stereo unspecified)	1.78
COc1ccccc1CC(=O)NS(=O)(=O)c1ccc(C#N)cc1	-10.4
O=C(c1cccnc1)N1CCc2ncnc(C3CCOC3)c2CC1 (stereo unspecified)	4.22
CCOCCCNC(=O)C(NC(=O)Cc1cccs1)c1ccccc1 (stereo unspecified)	12.3
Cc1cnc(NCc2ccncc2)nc1-c1cnn(C)c1	15.4
O=C(NCc1nc2ccccc2[nH]1)c1cc2n(n1)CCCO2	-5.43
Cc1nc(CO[C@H]2CN(C(=O)c3cnoc3C)[C@@H]3COC[C@H]23)cs1	-107
Nc1nc(N)c2c(n1)OC1(CCN(Cc3nccs3)C1)C2 (stereo unspecified)	0.861
Nc1nc2c(c(N3CCCC(c4nnc5ccccn45)C3)n1)CCNC2 (stereo unspecified)	-3.57

====

Reported cytotoxicity at 10 µM values are given for each entry in this list.
Experiment: Toxicity liver stage against HepG2, at 10uM
Type: cell-based
Set-up: test concentration 10 uM, cell line HepG2-A16-CD81EGFP
Settings: human, HepG2-A16-CD81EGFP cells; read-out: INHIBITION

compound	cytotoxicity at 10 µM
Cc1cs/c(=N\C(=O)Cn2nc(N3CCOCC3)ccc2=O)[nH]1	-5.07%
CCN(Cc1cnn(C)c1)C(=O)c1cc2ccccc2c(=O)[nH]1	-7.94%
Cc1nn(C)c(C)c1-c1nccnc1CC1CCNCC1	-2.38%
O=C(Nc1ccc(N2CCCC2)nc1)N1CCc2sccc2C1	-16.6%
O=C(NCc1ccccc1F)NC1CCCN(c2ncccn2)C1 (configuration not stated)	7.81%
CCc1ccc(C(C)NC(=O)CCc2nc(-c3nnc[nH]3)no2)cc1 (configuration not stated)	-1.98%
Cc1ccc(N2CC3(CCN(S(=O)(=O)C4CC4)C3)C2)nn1	10.6%
Fc1ccc(-c2nc(CNC3CCc4ncnn4C3)cs2)cc1 (configuration not stated)	-4.92%
N#Cc1cc(NC(=O)c2ccncc2)ccc1N1CCC(O)CC1	7.48%
NC(=O)NC(=O)CCSCc1cc(F)cc2cccnc12	1.88%
O=C1CCC2(CCC(NC(=O)NCc3cccnc3)CC2)N1 (configuration not stated)	-5.25%
O=c1[nH]c(=O)n(CC(O)c2ccc(F)cc2F)cc1Cl (configuration not stated)	2.64%

====

# cytotoxicity at 10 µM values compiled below
Assay: Toxicity liver stage against HepG2, at 10uM
Type: cell-based
Set-up: test concentration 10 uM, cell line HepG2-A16-CD81EGFP
Conditions: human, HepG2-A16-CD81EGFP cells; read-out: INHIBITION

compound	cytotoxicity at 10 µM [%]
Cc1ccc(CN2CCC(CNC(=O)Cn3cncn3)CC2)cc1	1.22
C[C@]12CCCCN(C(=O)c3ccccn3)[C@H]1CCCC(=O)N2	-20.1
CC(C)N(C)Cc1nnc2n1CCCN(c1cnccn1)C2	0.0861
Cc1ncc(C(=O)NCCNC(=O)Cc2cccc(F)c2)s1	-4.53
Cc1cnc(CN(C)CC2CCCN2c2cccnn2)cn1 (configuration not stated)	-0.241
Cc1nc(C)c(CN2CCOC[C@H](Oc3ccccc3)C2)s1	7.53
Cc1csc(CN2CC[C@H]3C[C@H](C)O[C@@H]3C2)n1	2.58
Cc1nc(CN2CCN(C(=O)c3sccc3C3CC3)CC2)oc1C	-15.2
OCCOCc1n[nH]c2c1CN(Cc1ccco1)C2	6.71
CC(=O)N1CCCN(C(=O)c2ccc(=O)n(C)c2)c2ccccc21	-10.4
O=C(c1cccnc1N1CCCC1)N1CCOC(c2ccccc2)C1 (configuration not stated)	3.13
CCc1ccccc1-c1cc(OC)nc(N)n1	-3.3

====

Test: Toxicity liver stage against HepG2, at 10uM
Format: cell-based
Parameters: test concentration 10 uM, cell line HepG2-A16-CD81EGFP
Conditions: human, HepG2-A16-CD81EGFP cells; read-out: INHIBITION
Listed next: entries and their corresponding cytotoxicity at 10 µM.

compound	cytotoxicity at 10 µM [%]
c1cnn(CC2CN(Cc3noc(C4CC4)n3)CCO2)c1 (stereo unspecified)	-0.842
Cc1csc2c(N3CCC(NCCCc4cnn(C)c4)CC3)ncnc12	0.301
Cc1cc(C)c(CNC(=O)N2CCC(N3CCNC3=O)CC2)c(C)c1	-2.22
Cc1c(NC(=O)c2ncn[nH]2)cccc1C(=O)NC(C)(C)C	-8.93
NS(=O)(=O)c1ccc(NCc2ccccc2)cc1C(F)(F)F	3.85
Cc1n[nH]c(C2CN(CCCOc3ccc(F)cc3)CCO2)n1 (stereo unspecified)	-5.76
COc1ccc(F)cc1-n1cnc(CCNC(C)=O)c1	13.7
CS(=O)(=O)c1cn[nH]c1C1CCCCN1C(=O)c1cnccn1 (stereo unspecified)	-2.13
Cc1nc(C)n(C2CCCN(C(=O)c3ccc(F)c(F)c3)C2)n1 (stereo unspecified)	-11.9
CCOCCCC(=O)Nc1c(-c2ccc(F)cc2)ncn1C	-9.19
O=c1c2c[nH]c(N3CCCC3)nc-2cn1C1CCS(=O)(=O)C1 (stereo unspecified)	1.09

====

Test: Toxicity liver stage against HepG2, at 10uM
Type: cell-based
Parameters: test concentration 10 uM, cell line HepG2-A16-CD81EGFP
Conditions: human, HepG2-A16-CD81EGFP cells; read-out: INHIBITION
Entries and their cytotoxicity at 10 µM

compound	cytotoxicity at 10 µM [%]
CC(NC(=O)N1CCC2(C1)OCCO2)c1cccc(Cl)c1 (stereo unspecified)	-6.88
CCC(CO)NC(=O)Cc1ccc(NC(=O)CC2=CCCCC2)cc1 (stereo unspecified)	0.571
CCN(CC(F)(F)F)C(=O)C1CCCN(Cc2ccno2)C1 (stereo unspecified)	-2.33
N#CCSCCCN1CCN(C(=O)C2CCCC2)CC1	5.34
CCn1cc(N)c(C(=O)NCc2cnn(C)c2)n1	-0.729
COc1ccccc1OCCCN1C(=O)CCNC1=O	-3.7

====

Assay: Toxicity liver stage against HepG2, at 10uM
Format: cell-based
Design: test concentration 10 uM, cell line HepG2-A16-CD81EGFP
Details: human, HepG2-A16-CD81EGFP cells; read-out: INHIBITION
Measured cytotoxicity at 10 µM values are reported for all entries that follow.
observed property: cytotoxicity at 10 µM

molecule	observed property	result
CN1CCCN(C(=O)NCc2cc(Br)cs2)CC1	cytotoxicity at 10 µM	-16.7%
CN1CCOC[C@H]1c1nc(-c2ccncc2)c[nH]1	cytotoxicity at 10 µM	2.23%
Cc1nc(C2(O)CCCNCC2)sc1CCOc1ccccc1 (stereo unspecified)	cytotoxicity at 10 µM	-28.5%
CCc1nc(C2CCCN(C(=O)c3cccc(Cl)c3)C2)no1 (stereo unspecified)	cytotoxicity at 10 µM	-7.55%
CC(C)=CCCC(C)(O)c1cc(C(N)=O)no1 (stereo unspecified)	cytotoxicity at 10 µM	3.56%
O=C(c1ccc(-c2cccs2)cc1F)N1CCN(CCO)CC1	cytotoxicity at 10 µM	-47.3%

====

Overview of reported cytotoxicity at 10 µM across a group of compounds:
Assay: Toxicity liver stage against HepG2, at 10uM
Type: cell-based
Design: test concentration 10 uM, cell line HepG2-A16-CD81EGFP
Settings: human, HepG2-A16-CD81EGFP cells; read-out: INHIBITION

compound	cytotoxicity at 10 µM
O=S1(=O)CCC(N(Cc2nc(-c3ccccn3)no2)Cc2cccs2)C1 (stereo not drawn)	-4.54%
CCc1ccc(C(=O)Nc2cccc(CN3CCCC3C(N)=O)c2)cc1 (stereo not drawn)	-0.268%
COc1ccc2c(ccn2CC(=O)NC[C@@H]2CCCN3CCCC[C@H]23)c1	-4.56%
CC(=O)Nc1ccc2nc(-c3nccn3C[C@@H]3CCCO3)ccc2c1	-8.18%
COc1ccccc1-c1cc(NC(=O)COCC2CC2)[nH]n1	-116%
FC(F)(F)c1ccc2[nH]c([C@H]3CCNC3)nc2c1	2.91%
O=C(CCc1nnc(-c2ccccc2)o1)N1CCCC1c1ccc[nH]1 (stereo not drawn)	-3.33%
CC(CO)(NC(=O)Nc1nnc(C(F)F)s1)C1CC1 (stereo not drawn)	9.23%
CN1CCOC(C(=O)Nc2ccc3c(c2)nc(C(C)(C)C)n3C)C1 (stereo not drawn)	-1.8%
CCN(Cc1ccccc1)Cc1nc2c(cnn2C)c(=O)[nH]1	2.86%
CC(C)(C)CN[C@@H]1CO[C@H](CNC(=O)C2CCCC2)[C@H]1O	-9.03%
CC(C)Cc1noc(CN(C)c2cc(N(C)C)ncn2)n1	-0.75%
CC(C)CNC(=O)c1sccc1-n1cnnn1	0.00426%
CN1CCCC(c2cccc(-c3ccccc3F)n2)C1 (stereo not drawn)	2.58%
CC(CNS(=O)(=O)CCCC#N)c1ccsc1 (stereo not drawn)	3.02%
COC[C@@]12CCC[C@@H]1CN(C(=O)COc1ccccc1OC)C2	-106%
Cc1cc(C(=O)N2CC[C@@H]3CN(S(C)(=O)=O)CCO[C@@H]3C2)c(C)o1	3.52%
Cn1cc(-c2cnc3n2CCC32CCN(S(C)(=O)=O)CC2)cn1	-127%
CCC(=O)N1CCN(C(=O)CCn2cc(Cl)cn2)[C@H]2CS(=O)(=O)C[C@H]21	-6.39%
Cc1nc2c(c(C)c1CC(=O)NCc1ccco1)c(=O)[nH]n2C	-42.5%
c1cncc(CN2CCc3ncnc(C4CCOC4)c3CC2)c1 (stereo not drawn)	5.02%
COc1cccc(OC)c1C(=O)N1C[C@@H](CN(C)C)[C@@H](CO)C1	-4.51%
CC(C)Nc1ncnc2c1CCN(C(=O)CCc1ccccc1)CC2	-72%
